Just for reference, patent US20240002425A1 is where these values come from.

Molecular target: human TLR4 (Homo sapiens, UniProt O00206+Q9Y6Y9)
Sequence (O00206 24-839): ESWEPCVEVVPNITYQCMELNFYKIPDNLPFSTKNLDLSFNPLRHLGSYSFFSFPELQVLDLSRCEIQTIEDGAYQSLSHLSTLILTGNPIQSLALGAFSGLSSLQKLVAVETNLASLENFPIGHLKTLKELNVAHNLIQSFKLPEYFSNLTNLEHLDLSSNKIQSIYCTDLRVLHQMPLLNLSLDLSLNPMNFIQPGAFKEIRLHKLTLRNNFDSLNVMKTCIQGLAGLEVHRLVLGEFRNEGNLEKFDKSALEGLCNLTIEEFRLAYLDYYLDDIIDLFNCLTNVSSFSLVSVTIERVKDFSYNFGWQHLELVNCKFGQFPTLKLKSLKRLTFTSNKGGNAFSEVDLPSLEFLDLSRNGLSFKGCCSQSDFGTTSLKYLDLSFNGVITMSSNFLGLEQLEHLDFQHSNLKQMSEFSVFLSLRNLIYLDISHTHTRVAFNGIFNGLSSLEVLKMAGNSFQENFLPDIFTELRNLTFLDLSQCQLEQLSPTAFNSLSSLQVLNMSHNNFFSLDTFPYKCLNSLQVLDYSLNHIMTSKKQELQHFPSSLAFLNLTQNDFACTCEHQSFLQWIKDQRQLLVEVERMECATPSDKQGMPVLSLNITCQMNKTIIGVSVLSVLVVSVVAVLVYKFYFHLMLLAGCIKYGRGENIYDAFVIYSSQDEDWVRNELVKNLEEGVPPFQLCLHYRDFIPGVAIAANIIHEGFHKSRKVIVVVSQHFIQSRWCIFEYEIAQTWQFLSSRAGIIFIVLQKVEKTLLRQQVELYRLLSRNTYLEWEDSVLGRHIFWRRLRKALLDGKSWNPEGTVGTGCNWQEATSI
Sequence (Q9Y6Y9 17-160 limits assumed): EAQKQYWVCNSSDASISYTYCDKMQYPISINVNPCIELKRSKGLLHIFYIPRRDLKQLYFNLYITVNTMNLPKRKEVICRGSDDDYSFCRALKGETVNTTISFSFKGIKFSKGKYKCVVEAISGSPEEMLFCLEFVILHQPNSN
Experiment: Human TLR4 activating effect (HEK-Blue Human TLR4 Cells, SEAP reporter)
Type: cell-based
Details: 24 hours, SEAP Protein concentration, read-out: EC50 (ng/ml) (converted)
# EC50 per record follows

CPD SMILES	TARGET OF ASSAY	QUANTITY UNIT	EC50
CCCCCCCCCCC[C@H](CC(=O)N[C@H]1[C@H](OC[C@H](NC(=O)C[C@@H](CCCCCCCCCCC)OC(=O)CCCCCCCCC)C(=O)O)O[C@H](CO[C@@H]2O[C@H](COP(=O)(O)O)[C@@H](O)[C@H](O)[C@H]2NC(C)=O)[C@@H](OP(=O)(O)O)[C@@H]1OC(=O)C[C@@H](CCCCCCCCCCC)OC(=O)CCCCCCCCC)OC(=O)CCCCCCCCC	human TLR4 (Homo sapiens, UniProt O00206+Q9Y6Y9)	nM	0.288
CCCCCCCCCCC[C@H](CC(=O)N[C@@H](CO[C@@H]1O[C@H](CO[C@]2(C(=O)O)C[C@@H](O)[C@@H](O)[C@@H]([C@H](O)CO)O2)[C@@H](OP(=O)(O)O)[C@H](OC(=O)C[C@@H](CCCCCCCCCCC)OC(=O)CCCCCCCCC)[C@H]1NC(=O)C[C@@H](CCCCCCCCCCC)OC(=O)CCCCCCCCC)CC(=O)O)OC(=O)CCCCCCCCC	human TLR4 (Homo sapiens, UniProt O00206+Q9Y6Y9)	nM	0.0499

---

The compounds listed here are annotated with their EC50.
Molecular target: human TLR4 (Homo sapiens, UniProt O00206+Q9Y6Y9)
Test: Human TLR4 activating effect (HEK-Blue Human TLR4 Cells, SEAP reporter)
Format: cell-based
Conditions: 24 hours, SEAP Protein concentration, read-out: EC50 (ng/ml) (converted)
RECORDED ENDPOINT: EC50 (nM)

COMPOUND	MEASUREMENT
CCCCCCCCCCC[C@H](CC(=O)N[C@H]1[C@H](OC[C@H](NC(=O)C[C@@H](CCCCCCCCCCC)OC(=O)CCCCCCCCC)C(=O)O)O[C@H](CO[C@@H]2O[C@H](CO)[C@@H](O)[C@H](O)[C@H]2NC(C)=O)[C@@H](OP(=O)(O)O)[C@@H]1OC(=O)C[C@@H](CCCCCCCCCCC)OC(=O)CCCCCCCCC)OC(=O)CCCCCCCCC	0.396
CCCCCCCCCCC[C@H](CC(=O)NC1C(CC[C@H](NC(=O)C[C@@H](CCCCCCCCCCC)OC(=O)CCCCCCCCC)C(=O)O)OC(COC2(C(=O)O)CC(O)C(O)C([C@H](O)CO)O2)C(OP(=O)(O)O)C1OC(=O)C[C@@H](CCCCCCCCCCC)OC(=O)CCCCCCCCC)OC(=O)CCCCCCCCC (stereo partly drawn) [Example 14(14d)]	0.188
CCCCCCCCCCC[C@H](CC(=O)NC1C(CC[C@H](NC(=O)C[C@@H](CCCCCCCCCCC)OC(=O)CCCCCCCCC)C(=O)O)OC(CO)C(OP(=O)(O)O)C1OC(=O)C[C@@H](CCCCCCCCCCC)OC(=O)CCCCCCCCC)OC(=O)CCCCCCCCC (stereo partly drawn)	1.61

---

Attribute: EC50
Biological target: human TLR4 (Homo sapiens, UniProt O00206+Q9Y6Y9)
Assay: Human TLR4 activating effect (HEK-Blue Human TLR4 Cells, SEAP reporter)
Type: cell-based
Details: 24 hours, SEAP Protein concentration, read-out: EC50 (ng/ml) (converted)

COMPOUND	EC50 [nM]
CCCCCCCCCCC[C@H](CC(=O)NC1C(CC[C@@H](CC(=O)O)NC(=O)C[C@@H](CCCCCCCCCCC)OC(=O)CCCCCCCCC)OC(COC2(C(=O)O)CC(OC3(C(=O)O)CC(O)C(O)C([C@H](O)CO)O3)C(O)C([C@H](O)CO)O2)C(OP(=O)(O)O)C1OC(=O)C[C@@H](CCCCCCCCCCC)OC(=O)CCCCCCCCC)OC(=O)CCCCCCCCC (stereo partly drawn) [Example 12(12d)]	0.67
CCCCCCCCCCC[C@H](CC(=O)N[C@H]1[C@H](OC[C@H](NC(=O)C[C@@H](CCCCCCCCCCC)OC(=O)CCCCCCCCC)C(=O)O)O[C@H](CO[C@]2(C(=O)O)C[C@@H](O)[C@@H](O)[C@@H]([C@H](O)CO)O2)[C@@H](OP(=O)(O)O)[C@@H]1OC(=O)C[C@@H](CCCCCCCCCCC)OC(=O)CCCCCCCCC)OC(=O)CCCCCCCCC	0.328
CCCCCCCCCCC[C@H](CC(=O)NC1C(OC[C@@H](CC(=O)O)NC(=O)C[C@@H](CCCCCCCCCCC)OC(=O)CCCCCCCCC)OC(COC2(C(=O)O)CC(OC3(C(=O)O)CC(O)C(O)C([C@H](O)CO)O3)C(O)C([C@H](O)CO)O2)C(OP(=O)(O)O)C1OC(=O)C[C@@H](CCCCCCCCCCC)OC(=O)CCCCCCCCC)OC(=O)CCCCCCCCC (stereo partly drawn)	0.422
